# Test Method Notes: Cytotoxicity against African green monkey Vero C1008 cells assessed as reduction in cell viability after 24 hrs by MTS assay
# Assay type: cell-based
# Stated Conditions: Chlorocebus sabaeus
Readout Type: IC50
Please append the unit to your numeric answer.

# Compound, IC50
measured = [
    ("COc1ccccc1C(c1ccc(OCCN2CCCCCC2)cc1)c1cccs1 (centres undefined)", "12.7 µg/mL"),
    ("Fc1ccccc1C(c1ccc(OCCN2CCCCC2)cc1)c1cccs1 (centres undefined)", "3.9 µg/mL"),
    ("CSc1ccc(C(c2ccc(OCCN(C(C)C)C(C)C)cc2)c2cccs2)cc1 (centres undefined)", "100 µg/mL"),
    ("CN(C)CCOc1ccc(C(c2cccc(Cl)c2)c2cccs2)cc1 (centres undefined)", "10.8 µg/mL"),
    ("CC(C)N(CCOc1ccc(C(c2cccc(Cl)c2)c2cccs2)cc1)C(C)C (centres undefined)", "22 µg/mL"),
]

Batch request: IC50 per item, same order as input.
1. COc1ccc(C(c2ccc(OCCN(C(C)C)C(C)C)cc2)c2cccs2)cc1 (centres undefined)
2. c1ccc(C(c2ccc(OCCN3CCCCCC3)cc2)c2cccs2)cc1 (centres undefined)
3. Clc1cccc(C(c2ccc(OCCN3CCCCC3)cc2)c2cccs2)c1 (centres undefined)
4. Clc1cccc(C(c2ccc(OCCN3CCCC3)cc2)c2cccs2)c1 (centres undefined)

Result block:
1. 100 µg/mL
2. 13 µg/mL
3. 8.7 µg/mL
4. 8.6 µg/mL

###

# Test Method Notes: Elimination half life in rat by HPLC and LC-MS/MS method
# Type: ADME, organism-based
# Stated Conditions: in vivo, read-out: beta t1/2 (converted)
Readout Type: half-life (h)
One number for each entry, in h.

Query block: Query (compound): COc1ccc(C(c2ccc(OCCN(C(C)C)C(C)C)cc2)c2cccs2)cc1 (stereo unspecified) ; field requested: half-life
Result block: 9

###

# Test Method Notes: Mean residence time in rat by HPLC and LC-MS/MS method
# Format: ADME, organism-based
# Stated Conditions: in vivo
Readout Type: MRT

Query block: Report MRT for COc1ccc(C(c2ccc(OCCN(C(C)C)C(C)C)cc2)c2cccs2)cc1 (stereo unspecified) please.
Result block: 18 h

###

# Test Method Notes: Cytotoxicity against African green monkey Vero C1008 cells assessed as reduction in cell viability after 24 hrs by MTS assay
# Format: cell-based
# Stated Conditions: Chlorocebus sabaeus
Readout Type: IC50
Dear colleague, please send the value followed by its unit.

Worked examples, 3 molecules total:
# Molecule, IC50
measured = [
    ("CCN(CC)CCOc1ccc(C(c2cccc(F)c2)c2cccs2)cc1 (stereo unspecified)", "5.8 µg/mL"),
    ("CC(C)N(CCOc1ccc(C(c2ccc(Cl)cc2)c2cccs2)cc1)C(C)C (stereo unspecified)", "100 µg/mL"),
    ("COc1ccccc1C(c1ccc(OCCN2CCCCC2)cc1)c1cccs1 (stereo unspecified)", "9.2 µg/mL"),
]

Count: 3. Required value per item: IC50.
1. CCN(CC)CCOc1ccc(C(c2cccc(Cl)c2)c2cccs2)cc1 (stereo unspecified)
2. Clc1ccc(C(c2ccc(OCCN3CCCCC3)cc2)c2cccs2)cc1 (stereo unspecified)
3. Clc1cccc(C(c2ccc(OCCN3CCOCC3)cc2)c2cccs2)c1 (stereo unspecified)

Result block:
1. 10.1 µg/mL
2. 100 µg/mL
3. 23.4 µg/mL
